- Target Or System: Amine oxidase [flavin-containing] A (Homo sapiens)
- Assay Overview: Inhibition of human recombinant MAO-A expressed in insect cells microsomes assessed as inhibition of 4-hydroxyquinoline formation using kynuramine as substrate incubated for 20 mins by fluorescence spectrophotometry analysis
Endpoint Label: IC50

Worked cases, answers included:
Sure, the documented IC50 for `NS(=O)(=O)c1ccc(C(=O)NNC(=O)c2ccccc2)cc1` is 62.8 µM

Sure, the documented IC50 for `NS(=O)(=O)c1cccc(-c2nnc(-c3ccc(F)cc3)o2)c1` is 34.4 µM

Please look at the following compound next.
Sure, the documented IC50 for `Cc1ccc(-c2nnc(-c3ccccc3)o2)cc1S(N)(=O)=O` is > 100 µM

###

- Organism: Homo sapiens
- Assay Overview: Selectivity index, ratio of IC50 for human recombinant MAO-A expressed in insect cells microsomes to IC50 for human recombinant MAO-B expressed in insect cells microsomes
Kindly supply the reported Ratio IC50 values for the records listed here.
Numbers only.

Worked cases, answers included:
Sure, the documented Ratio IC50 for `NS(=O)(=O)c1ccc(-c2nnc(-c3ccc(F)cc3)o2)cc1` is 1060

Sure, the documented Ratio IC50 for `NS(=O)(=O)c1ccc(-c2nnc(-c3ccc(Cl)cc3)o2)cc1` is 1420

Record Ratio IC50 for all entries; do not skip any.
1. N#Cc1ccc(C(=O)NNC(=O)c2ccc(S(N)(=O)=O)cc2)cc1
2. NS(=O)(=O)c1ccc(C(=O)NNC(=O)c2ccc(Cl)c(Cl)c2)cc1
3. N#Cc1ccc(-c2nnc(-c3ccc(S(N)(=O)=O)cc3)o2)cc1

1. 14
2. 1.3
3. 76

###

- Target Or System: UniProt P27338
- Sequence (P27338 whole entry): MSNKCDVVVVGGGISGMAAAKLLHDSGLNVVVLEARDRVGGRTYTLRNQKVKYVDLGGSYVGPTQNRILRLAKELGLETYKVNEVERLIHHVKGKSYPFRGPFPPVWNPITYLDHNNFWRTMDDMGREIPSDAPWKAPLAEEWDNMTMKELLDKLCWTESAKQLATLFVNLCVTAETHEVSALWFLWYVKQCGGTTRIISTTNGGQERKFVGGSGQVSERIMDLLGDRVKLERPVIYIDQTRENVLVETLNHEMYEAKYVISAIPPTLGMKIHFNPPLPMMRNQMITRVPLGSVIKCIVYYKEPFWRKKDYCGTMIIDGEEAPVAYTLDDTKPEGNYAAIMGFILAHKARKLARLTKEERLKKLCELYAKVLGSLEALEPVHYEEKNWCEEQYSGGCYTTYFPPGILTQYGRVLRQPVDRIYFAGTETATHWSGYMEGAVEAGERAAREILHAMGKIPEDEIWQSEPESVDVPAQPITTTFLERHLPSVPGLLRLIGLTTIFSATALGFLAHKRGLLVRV
Kindly supply the reported IC50 values for the records listed here.
Answers are plain numbers, in nM.

Sure, the documented IC50 for `NS(=O)(=O)c1cccc(-c2nnc(-c3ccc(F)cc3)o2)c1` is 975

Record IC50 for all entries; do not skip any.
1. NS(=O)(=O)c1ccc(-c2nnc(-c3ccc(Cl)cc3)o2)cc1
2. N#Cc1ccc(C(=O)NNC(=O)c2ccc(S(N)(=O)=O)cc2)cc1
3. NS(=O)(=O)c1ccc(C(=O)NNC(=O)c2ccc(Cl)c(Cl)c2)cc1

1. 48
2. 1170
3. 10100

###

Kindly supply the reported pIC50 values for the records listed here.
- Target Or System: Amine oxidase [flavin-containing] A (Homo sapiens, UniProt P21397)
- Sequence (P21397 whole entry): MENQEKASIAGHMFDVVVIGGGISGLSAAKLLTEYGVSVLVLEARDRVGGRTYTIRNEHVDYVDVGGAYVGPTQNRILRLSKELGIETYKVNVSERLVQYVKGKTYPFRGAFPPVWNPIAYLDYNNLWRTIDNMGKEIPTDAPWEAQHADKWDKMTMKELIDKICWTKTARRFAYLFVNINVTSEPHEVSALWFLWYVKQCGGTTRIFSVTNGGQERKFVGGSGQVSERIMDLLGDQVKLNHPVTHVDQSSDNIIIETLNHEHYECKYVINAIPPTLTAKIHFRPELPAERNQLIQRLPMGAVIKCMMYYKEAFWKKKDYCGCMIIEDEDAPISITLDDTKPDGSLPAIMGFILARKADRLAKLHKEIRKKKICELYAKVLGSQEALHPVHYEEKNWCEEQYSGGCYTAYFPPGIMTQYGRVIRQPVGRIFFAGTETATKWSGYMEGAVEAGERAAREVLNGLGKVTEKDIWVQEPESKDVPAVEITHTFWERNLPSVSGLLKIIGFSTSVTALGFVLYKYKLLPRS
- Assay Overview: Inhibition of human recombinant MAO-A expressed in insect cells microsomes assessed as inhibition of 4-hydroxyquinoline formation using kynuramine as substrate incubated for 20 mins by fluorescence spectrophotometry analysis
One number for each entry, as −log10 of the molar value.

Worked cases, answers included:
Sure, the documented pIC50 for `NS(=O)(=O)c1ccc(-c2nnc(-c3ccc(Cl)cc3)o2)cc1` is 4.17

Sure, the documented pIC50 for `NS(=O)(=O)c1ccc(C(=O)NNC(=O)c2ccc(Cl)cc2)cc1` is 4.25

Sure, the documented pIC50 for `NS(=O)(=O)c1ccc(-c2nnc(-c3ccccc3)o2)cc1` is 4.19

Please look at the following compound next.
Sure, the documented pIC50 for `N#Cc1ccc(C(=O)NNC(=O)c2ccc(S(N)(=O)=O)cc2)cc1` is 4.79
